Below: a set of entries, each annotated with reported inhibition.
target: Delta-type opioid receptor (Mus musculus) (UniProt P32300); experiment: Inhibition of (-)-[9-3H]bremazocine binding to delta opioid receptor at 10 uM
Sequence (P32300 whole entry, looked up): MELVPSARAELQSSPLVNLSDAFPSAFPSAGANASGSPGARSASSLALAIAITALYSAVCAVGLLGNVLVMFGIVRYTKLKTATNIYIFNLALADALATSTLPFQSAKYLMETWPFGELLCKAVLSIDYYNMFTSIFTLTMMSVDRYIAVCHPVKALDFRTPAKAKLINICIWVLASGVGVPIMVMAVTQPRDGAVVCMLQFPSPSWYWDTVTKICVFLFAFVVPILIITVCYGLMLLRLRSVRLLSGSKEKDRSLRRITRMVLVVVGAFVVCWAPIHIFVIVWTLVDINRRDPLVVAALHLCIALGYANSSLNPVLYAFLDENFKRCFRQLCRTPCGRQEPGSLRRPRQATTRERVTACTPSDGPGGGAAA
result type: inhibition (%)

- smiles record: "CC(C)(C)c1ccc(-c2nncn2-c2cccc(O)c2)cc1"
  result type: "inhibition"
  number: 54
- smiles record: "CN(C)c1nnc(-c2ccc3ccccc3c2)n1-c1cccc(O)c1"
  result type: "inhibition"
  number: 68
- smiles record: "COc1cccc(-n2c(-c3ccc(C(C)(C)C)cc3)nnc2N(C)C)c1"
  result type: "inhibition"
  number: 28
- smiles record: "Oc1cccc(-n2cnnc2-c2ccc(-c3ccccc3)cc2)c1"
  result type: "inhibition"
  number: 75

---

Measured Selectivity ratio of individual entries
test system: Delta (Mus musculus) and kappa (Rattus norvegicus) opioid receptors; test: Selectivity for delta opioid receptor over kappa opioid receptor

- smiles record: "CN(C)c1nnc(-c2ccc(C(C)(C)C)cc2)n1-c1cccc(O)c1"
  target system: "Delta (Mus musculus) and kappa (Rattus norvegicus) opioid receptors"
  Selectivity ratio: "> 200"
- smiles record: "CN(C)c1nnc(-c2ccc3ccccc3c2)n1-c1cccc(O)c1"
  target system: "Delta (Mus musculus) and kappa (Rattus norvegicus) opioid receptors"
  Selectivity ratio: "> 20.8"
- smiles record: "Oc1cccc(-n2cnnc2-c2cccc(-c3ccccc3)c2)c1"
  target system: "Delta (Mus musculus) and kappa (Rattus norvegicus) opioid receptors"
  Selectivity ratio: "> 71.4"
- smiles record: "Oc1cccc(-n2cnnc2-c2ccc3ccccc3c2)c1"
  target system: "Delta (Mus musculus) and kappa (Rattus norvegicus) opioid receptors"
  Selectivity ratio: "> 4.76"
- smiles record: "CN(C)c1nnc(-c2cccc(-c3ccccc3)c2)n1-c1cccc(O)c1"
  target system: "Delta (Mus musculus) and kappa (Rattus norvegicus) opioid receptors"
  Selectivity ratio: "> 66.6"
- smiles record: "CC(C)(C)c1cccc(-c2nncn2-c2cccc(O)c2)c1"
  target system: "Delta (Mus musculus) and kappa (Rattus norvegicus) opioid receptors"
  Selectivity ratio: 6.52
